# target: uPA (Homo sapiens, UniProt P00749)
# test_summary: FRET peptide cleavage efficiency with uPA
# Format: biochemical
# test_conditions: t = 60 min; 200 uM linker, 1 ug/ml protease, 37° C., buffer A pH 8.5
Square brackets hold non-standard residues; d marks the D form. Ends that are not written are not given here. Tyr(3-NO2) = N[C@@H](Cc1ccc(O)c([N+](=O)[O-])c1)C(=O)O; 2Abz = Nc1ccccc1C(=O)O
Catalogue of % cleavage uPA t = 60 min readings, one per entry.
Just the number in %, nothing appended.

SGRVANLVG (not fully specified (N-terminus, C-terminus)) [LNK017] = 6
RQRRSAPLGLAG ([2Abz]RQRRSAPLGLAG[Tyr(3-NO2)]-NH2) [LNK009] = 1
SGRVLRKAGPAGLVG ([2Abz]SGRVLRKAGPAGLVG[Tyr(3-NO2)]-NH2) [LNK013] = 2
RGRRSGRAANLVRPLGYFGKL ([2Abz]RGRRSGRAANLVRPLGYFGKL[Tyr(3-NO2)]-NH2) [LNK059] = 100
SGRVLPAGLVG ([2Abz]SGRVLPAGLVG[Tyr(3-NO2)]-NH2) [LNK007] = 0
SGRVLTLRKAGPAGLVG ([2Abz]SGRVLTLRKAGPAGLVG[Tyr(3-NO2)]-NH2) [LNK011] = 17

## Input Entry SSRGPYMLQG ([2Abz]SSRGPYMLQG[Tyr(3-NO2)]-NH2) [LNK022] has what % cleavage uPA t = 60 min?
## Output 1

## Input Could you share which % cleavage uPA t = 60 min value was measured for RGRRVANYFGKL ([2Abz]RGRRVANYFGKL[Tyr(3-NO2)]-NH2) [LNK055] ?
## Output 4

## Input So what's the measured % cleavage uPA t = 60 min for this one? GSGSGSGS ([2Abz]GSGSGSGS[Tyr(3-NO2)]-NH2) [LNK064]
## Output 0

FYI, the data here is from patent US20240400614A1.
